Give measured IC50 for each item. Keep answers brief.
# assayed-target: PI3Kα (p110α/p85α) (Homo sapiens)
# Construct: GST (N)
# Sequence (P42336 whole entry): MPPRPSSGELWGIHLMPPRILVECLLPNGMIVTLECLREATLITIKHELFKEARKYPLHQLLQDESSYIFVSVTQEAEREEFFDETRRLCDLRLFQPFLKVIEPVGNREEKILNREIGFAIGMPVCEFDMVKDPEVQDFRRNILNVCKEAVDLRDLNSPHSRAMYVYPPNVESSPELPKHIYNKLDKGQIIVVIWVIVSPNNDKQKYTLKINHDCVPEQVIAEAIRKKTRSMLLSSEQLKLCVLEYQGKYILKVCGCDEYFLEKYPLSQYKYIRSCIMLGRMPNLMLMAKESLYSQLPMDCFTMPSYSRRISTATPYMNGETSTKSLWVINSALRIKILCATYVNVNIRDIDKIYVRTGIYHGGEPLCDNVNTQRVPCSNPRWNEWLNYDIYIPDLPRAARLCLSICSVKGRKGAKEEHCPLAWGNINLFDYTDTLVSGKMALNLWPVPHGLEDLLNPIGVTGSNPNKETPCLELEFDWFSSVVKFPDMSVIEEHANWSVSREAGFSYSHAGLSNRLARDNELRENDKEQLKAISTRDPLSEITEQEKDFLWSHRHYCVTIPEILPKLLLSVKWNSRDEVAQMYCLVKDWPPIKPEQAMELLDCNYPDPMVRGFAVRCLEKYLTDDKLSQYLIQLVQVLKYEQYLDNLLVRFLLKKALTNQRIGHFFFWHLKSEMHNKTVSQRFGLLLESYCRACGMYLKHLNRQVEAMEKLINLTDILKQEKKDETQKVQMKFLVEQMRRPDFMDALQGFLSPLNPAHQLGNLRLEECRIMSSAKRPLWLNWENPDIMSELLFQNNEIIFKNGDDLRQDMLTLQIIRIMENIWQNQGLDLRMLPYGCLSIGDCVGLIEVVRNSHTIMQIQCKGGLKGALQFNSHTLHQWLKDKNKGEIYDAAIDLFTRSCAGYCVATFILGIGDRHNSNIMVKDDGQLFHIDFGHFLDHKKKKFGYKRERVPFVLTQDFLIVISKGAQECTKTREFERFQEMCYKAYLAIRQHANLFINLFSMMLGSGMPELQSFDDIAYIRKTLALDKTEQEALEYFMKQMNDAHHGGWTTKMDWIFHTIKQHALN
# Sequence (P27986 whole entry partner): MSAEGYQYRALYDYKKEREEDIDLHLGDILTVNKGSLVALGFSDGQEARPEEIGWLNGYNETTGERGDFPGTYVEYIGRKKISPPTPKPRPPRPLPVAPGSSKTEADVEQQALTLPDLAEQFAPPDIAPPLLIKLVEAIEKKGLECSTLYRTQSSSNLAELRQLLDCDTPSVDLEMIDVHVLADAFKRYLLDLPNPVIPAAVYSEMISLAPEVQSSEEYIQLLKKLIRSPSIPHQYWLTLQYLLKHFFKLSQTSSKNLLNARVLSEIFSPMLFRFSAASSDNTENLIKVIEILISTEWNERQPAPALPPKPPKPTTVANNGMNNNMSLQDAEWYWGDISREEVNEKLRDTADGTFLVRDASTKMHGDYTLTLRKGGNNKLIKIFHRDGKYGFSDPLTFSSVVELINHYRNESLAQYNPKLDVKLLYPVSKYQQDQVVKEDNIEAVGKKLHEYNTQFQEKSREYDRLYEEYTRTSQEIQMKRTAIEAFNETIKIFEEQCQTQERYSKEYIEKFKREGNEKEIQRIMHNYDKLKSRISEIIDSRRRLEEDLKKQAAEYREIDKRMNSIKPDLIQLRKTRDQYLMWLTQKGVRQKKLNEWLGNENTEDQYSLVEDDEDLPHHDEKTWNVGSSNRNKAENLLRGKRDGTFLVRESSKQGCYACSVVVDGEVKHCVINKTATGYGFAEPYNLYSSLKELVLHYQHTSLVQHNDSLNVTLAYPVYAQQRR
# experimental-details: PI3Kα ADP-Glo assay
# condition-context: 20 μM PIP2, 10 μM ATP, 30 minutes

For orientation, consider the following solved cases.
Prompt: Provide one value: measured IC50 of CN(Cc1cc2nc(-c3cccc(CO)c3)nc(N3CCOCC3)c2s1)c1ncc(C(=O)NO)cn1
Completion: < 100 nM

Prompt: Provide only the value of recorded IC50 for CN(Cc1cc2nc(-c3cccc4[nH]ncc34)nc(N3CCCCC3)c2s1)c1ncc(C(=O)NO)cn1
Completion: 100 to 1000 nM

Prompt: Give the value of IC50 reported for the following: CCN(CC)c1ccc(-c2nc(N3CCOCC3)c3sc(CN(C)c4ncc(C(=O)NO)cn4)cc3n2)cc1
Completion: > 10000 nM

Prompt: Please supply the value of reported IC50 for the item CC(C)(Nc1ncc(C(=O)NO)cn1)c1cc2nc(-c3ccc(N)cc3)nc(N3CCOCC3)c2s1
Completion: 1000 to 10000 nM

Prompt: Identify the reported IC50 for the following entry. CN(Cc1cc2nc(-c3cccc4[nH]ncc34)nc(Nc3ccccc3)c2s1)c1ncc(C(=O)NO)cn1
Completion: < 100 nM

Consider the following items and state reported IC50 for each.
1. CN(Cc1cc2nc(-c3cccc4[nH]ncc34)nc(N3CCOCC3)c2s1)c1ccc(C(=O)NO)cc1
2. CN(Cc1cc2nc(-c3ccc(Cl)cc3)nc(N3CCOCC3)c2s1)c1ncc(C(=O)NO)cn1

Completion:
1. < 100 nM
2. > 10000 nM
